Cited source for all entries: ChEMBL document CHEMBL4513216

Provide the recorded cytotoxicity at 10 µM for the entries that follow.
MEASUREMENT_NOTES: Toxicity liver stage against HepG2, at 10uM
Assay type: cell-based
Set-up: test concentration 10 uM, cell line HepG2-A16-CD81EGFP
SETUP_CONDITIONS: human, HepG2-A16-CD81EGFP cells; read-out: INHIBITION
Numbers only, in %.

Q: Report cytotoxicity at 10 µM for O=C(CCc1ccncc1)N1CCCC(n2cccn2)C1 (stereo not given) please.
A: -5.57

I would be grateful if you could provide cytotoxicity at 10 µM for each of the following entries.
1. CC(C)CC(=O)N1CCC(c2nnc3n2CCCCC3)CC1
2. CN1CCN(C(=O)c2cnsn2)c2ccc(F)cc21
3. CC(C)c1nc(C2CCCN(C(=O)CCc3cscn3)C2)no1 (stereo not given)
4. CCN(Cc1cccnc1)CC1(C)Cc2c(N)nc(N)nc2O1 (stereo not given)
5. CC(C)c1nsc(N2CCOCC2)n1

A:
1: -28; 2: 3.47; 3: -17.2; 4: 0.705; 5: -11

----------
MEASUREMENT_NOTES: Toxicity liver stage against HepG2, at 10uM
Assay type: cell-based
Design: test concentration 10 uM, cell line HepG2-A16-CD81EGFP
SETUP_CONDITIONS: human, HepG2-A16-CD81EGFP cells; read-out: INHIBITION
Give cytotoxicity at 10 µM for every item shown.
Answers are plain numbers, in %.

Would you please look over these solved cases?
Q: Which value of cytotoxicity at 10 µM has been reported for N#Cc1ccc(CNC(=O)NCCC(=O)NC2CCCC2)c(F)c1 in the records?
A: 3.79

Q: Look up cytotoxicity at 10 µM: CC[C@H]1CN2CC[C@H]1C[C@@H]2CNC(=O)NC1CCCCC1
A: 0.91

Q: Data request, read-out cytotoxicity at 10 µM, for Cc1nc(CCNC(=O)C(N)c2c(C)n[nH]c2C)sc1C (stereo not given)
A: 2.08

Each compound below has a recorded value; state its cytotoxicity at 10 µM.
1. COc1ccc(Cl)cc1CN(C)CC(=O)Nc1ccnn1C(C)C1CC1 (stereo not given)
2. Cc1noc(C(C)N2CCc3[nH]c4ccc(Cl)cc4c3C2)n1 (stereo not given)
3. COc1ccc(-c2cc(C3(O)CCCC3)on2)cc1
4. OCCNc1nccc(-c2cn3nccc3nc2C2CCCCC2)n1
5. CCOCCOc1ccccc1C(=O)N1CCCC(c2ncc[nH]2)C1 (stereo not given)

A:
1. 4.85
2. 1.99
3. 2.5
4. -0.085
5. -14.2

Value sought for every listed compound: cytotoxicity at 10 µM.
1. O=C1O[C@@H]2CN(Cc3cccnc3)C[C@@H]2N1CCCN1CCOCC1
2. CN(Cc1cnn(C)c1)C(=O)Cc1ccc2c(c1)OCCO2

A:
[-2.27, 2.45]

Record cytotoxicity at 10 µM per entry; entries follow.
1. COc1ccc(NC(=O)Nc2c(O)c3ccccc3oc2=O)cc1
2. CCn1nnc2c1C(COC)CN(C(=O)Cc1cccs1)C2 (stereo not given)

A:
1: -9.87; 2: -15.5

----------
MEASUREMENT_NOTES: Toxicity liver stage against HepG2, at 10uM
Format: cell-based
Design: test concentration 10 uM, cell line HepG2-A16-CD81EGFP
SETUP_CONDITIONS: human, HepG2-A16-CD81EGFP cells; read-out: INHIBITION
Would you kindly list cytotoxicity at 10 µM for each of these molecules?
Give bare numbers, in %.

Q: Fill in the blank: the reported cytotoxicity at 10 µM of COc1ccccc1C(C)N(C)Cc1nc2c(cnn2C)c(=O)[nH]1 (stereo unspecified) is ____.
A: -9.1

Q: Name the recorded cytotoxicity at 10 µM for CN(Cc1ccc2c(c1)OCO2)C(=O)Cn1cccnc1=O .
A: -3.96

Q: What measured cytotoxicity at 10 µM goes with O=C(c1ccsc1)N1CCC2(CC1)COCCN(Cc1ccncc1)C2 ?
A: -89.6

Q: If you can, please state the reported cytotoxicity at 10 µM value of Cc1nn(C)c(N(C)C)c1CNCC(O)COc1ccccc1 (stereo unspecified) .
A: -0.0582

Q: // lookup cytotoxicity at 10 µM for COc1ccc(C2CC(=O)Oc3cc(C)[nH]c(=O)c32)cc1O (stereo unspecified)
A: -4.47

Batch of 8 molecules: report cytotoxicity at 10 µM for each.
1. COCC(=O)N1CC(c2n[nH]cc2C)C1
2. CCC1CN(Cc2nnc(C(C)C)o2)CCC(=O)N1Cc1ccccc1 (stereo unspecified)
3. CC(C)c1noc(OCc2cccc(C#N)c2)n1
4. CCCOc1cccc(NS(=O)(=O)c2cc(C(=O)O)cs2)c1
5. CC(=O)N1CCN(c2ncnc3cc4c(cc23)OCCO4)CC1
6. Cc1occc1C(=O)N1CCCN(Cc2nccn2C(C)C)CC1
7. CN1C[C@H](NC(=O)c2cscn2)[C@@H]2OCCC[C@@H]21
8. COc1ncc(Cl)c(NCc2ccc([S+](C)[O-])cc2)n1 (stereo unspecified)

A:
[-2.76, 3.33, -43.6, 1.09, 13.4, -9.24, -112, -4.18]
